# System: 186277-243-T-J2-PDC complex spheroids, viability
# assay protocol: Anticancer human tumor 186277-243-T-J2-PDC patient-derived colon adenocarcinoma cell line growth inhibition [RAS]; active = viability on the fitted dose curve at most 10% of control; inactive = the rest
# conditions used: second compound 0.000949 µM; first compound 1 µM
Choose the fitting class; nothing outside TRUE for active, FALSE for inactive is accepted.

Hello, I am checking results. What call was entered for CC1(O)CCCC1n1c(=O)c(C(F)F)cc2cnc(NC3CCN(S(C)(=O)=O)CC3)nc21 (configuration not stated) + CCn1c(-c2cc(N3CCN(C)CC3)cnc2C(C)OC)c2c3cc(ccc31)-c1csc(n1)CC(NC(=O)C1CC1C)C(=O)N1CCCC(N1)C(=O)OCC(C)(C)C2 ?
FALSE

Hello, I am checking results. What call was entered for CC(=O)OC12COC1CC(O)C1(C)C(=O)C(O)C3=C(C)C(OC(=O)C(O)C(NC(=O)OC(C)(C)C)c4ccccc4)CC(O)(C(OC(=O)c4ccccc4)C21)C3(C)C (configuration not stated) + CCn1c(-c2cc(N3CCN(C)CC3)cnc2C(C)OC)c2c3cc(ccc31)-c1csc(n1)CC(NC(=O)C1CC1C)C(=O)N1CCCC(N1)C(=O)OCC(C)(C)C2 ?
TRUE

Hello, I am checking results. What call was entered for CC(=O)OC12COC1CC(O)C1(C)C(=O)C(O)C3=C(C)C(OC(=O)C(O)C(NC(=O)OC(C)(C)C)c4ccccc4)CC(O)(C(OC(=O)c4ccccc4)C21)C3(C)C (configuration not stated) + CCn1c(-c2cccnc2C(C)OC)c2c3cc(ccc31)N1CCOC(CC(NC(=O)C(C(C)C)N(C)C(=O)C3(F)CCN(C(=O)C#CC(C)(C)N(C)C)CC3)C(=O)N3CCCC(N3)C(=O)OCC(C)(C)C2)C1 ?
TRUE

Now for another entry.
Hello, I am checking results. What call was entered for CC1(O)CCCC1n1c(=O)c(C(F)F)cc2cnc(NC3CCN(S(C)(=O)=O)CC3)nc21 (configuration not stated) + CCn1c(-c2cccnc2C(C)OC)c2c3cc(ccc31)N1CCOC(CC(NC(=O)C(C(C)C)N(C)C(=O)C3(F)CCN(C(=O)C#CC(C)(C)N(C)C)CC3)C(=O)N3CCCC(N3)C(=O)OCC(C)(C)C2)C1 ?
FALSE

###

# Tested on: 186277-243-T-J2-PDC complex spheroids, viability
# assay protocol: Anticancer human tumor 186277-243-T-J2-PDC cell line growth inhibition [RAS];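 note: spheroids exposed to compounds for 7 days before viability read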
# conditions used: second compound 0.03 µM; first compound 0.03 µM; stronger effect = lower value
Property: viability, T/C; scope: individual compounds
Quick note: give the figure in %, leave out the unit.

Some compounds with recorded viability, T/C:
Value of viability, T/C reported for the compound CCc1c2c(nc3ccc(O)cc13)-c1cc3c(c(=O)n1C2)COC(=O)[C@]3(O)CC + CCn1c(-c2cc(N3CCN(C)CC3)cnc2C(C)OC)c2c3cc(ccc31)-c1csc(n1)CC(NC(=O)C1CC1C)C(=O)N1CCCC(N1)C(=O)OCC(C)(C)C2 is 4.05

Value of viability, T/C reported for the compound CC1(C)CCC(Nc2ncc(C(F)(F)F)c(-c3c[nH]c4c(P(C)(C)=O)c(C#N)ccc34)n2)CN1 (centres undefined) + CCn1c(-c2cc(N3CCN(C)CC3)cnc2C(C)OC)c2c3cc(ccc31)-c1csc(n1)CC(NC(=O)C1CC1C)C(=O)N1CCCC(N1)C(=O)OCC(C)(C)C2 is 9.74

Value of viability, T/C reported for the compound CCc1c2c(nc3ccc(O)cc13)-c1cc3c(c(=O)n1C2)COC(=O)[C@]3(O)CC + CCn1c(-c2cccnc2C(C)OC)c2c3cc(ccc31)N1CCOC(CC(NC(=O)C(C(C)C)N(C)C(=O)C3(F)CCN(C(=O)C#CC(C)(C)N(C)C)CC3)C(=O)N3CCCC(N3)C(=O)OCC(C)(C)C2)C1 is 33

New cases:
Value of viability, T/C reported for the compound CC1(C)CCC(Nc2ncc(C(F)(F)F)c(-c3c[nH]c4c(P(C)(C)=O)c(C#N)ccc34)n2)CN1 (centres undefined) + CCn1c(-c2cccnc2C(C)OC)c2c3cc(ccc31)N1CCOC(CC(NC(=O)C(C(C)C)N(C)C(=O)C3(F)CCN(C(=O)C#CC(C)(C)N(C)C)CC3)C(=O)N3CCCC(N3)C(=O)OCC(C)(C)C2)C1 is 85.1

###

# Test system: 186277-243-T-J2-PDC complex spheroids, viability
# assay protocol: Anticancer human tumor 186277-243-T-J2-PDC cell line growth inhibition [RAS];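 note: spheroids exposed to compounds for 7 days before viability read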
# conditions used: second compound 0.03 µM; first compound 0.01 µM; stronger effect = lower value
# Text: RAS pathway inhibitors in Combinations in Complex Spheroids A high-throughput screen of multi-cell type tumor spheroids was designed to identify active combinations of RAS pathway inhibitors and targeted small molecules. Complex spheroids include a stromal component modeled by human endothelial cells (HUVEC) and fibroblasts modeled by human mesenchymal stem cells (MSCs). […] Compounds. […] If the clinical Cmax for an agent had not been determined, the highest concentration tested was 10 microM. […]
measurement label: viability, T/C (%)
Quick note: give the figure in %, leave out the unit.

Some compounds with recorded viability, T/C:
Value of viability, T/C reported for the compound C=CC(=O)Nc1cc(Nc2nccc(-c3cn(C)c4ccccc34)n2)c(OC)cc1N(C)CCN(C)C + CCn1c(-c2cc(N3CCN(C)CC3)cnc2C(C)OC)c2c3cc(ccc31)-c1csc(n1)CC(NC(=O)C1CC1C)C(=O)N1CCCC(N1)C(=O)OCC(C)(C)C2 is 15.4

Value of viability, T/C reported for the compound CCN1CCN(Cc2ccc(Nc3ncc(F)c(-c4cc(F)c5nc(C)n(C(C)C)c5c4)n3)nc2)CC1 + CCn1c(-c2cccnc2C(C)OC)c2c3cc(ccc31)N1CCOC(CC(NC(=O)C(C(C)C)N(C)C(=O)C3(F)CCN(C(=O)C#CC(C)(C)N(C)C)CC3)C(=O)N3CCCC(N3)C(=O)OCC(C)(C)C2)C1 is 136

Value of viability, T/C reported for the compound CC(C)n1nc(-c2ccc3oc(N)nc3c2)c2c(N)ncnc21 + CCn1c(-c2cccnc2C(C)OC)c2c3cc(ccc31)N1CCOC(CC(NC(=O)C(C(C)C)N(C)C(=O)C3(F)CCN(C(=O)C#CC(C)(C)N(C)C)CC3)C(=O)N3CCCC(N3)C(=O)OCC(C)(C)C2)C1 is 90.2

Please examine the following record next.
Value of viability, T/C reported for the compound Nc1ccn(C2OC(CO)C(O)C2(F)F)c(=O)n1 (centres undefined) + CCn1c(-c2cc(N3CCN(C)CC3)cnc2C(C)OC)c2c3cc(ccc31)-c1csc(n1)CC(NC(=O)C1CC1C)C(=O)N1CCCC(N1)C(=O)OCC(C)(C)C2 is 5.11

###

# System: 186277-243-T-J2-PDC complex spheroids, viability
# assay protocol: Anticancer human tumor 186277-243-T-J2-PDC cell line growth inhibition [RAS];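 note: spheroids exposed to compounds for 7 days before viability read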
# conditions used: second compound 0.00949 µM; first compound 10 µM; stronger effect = lower value
measurement label: viability, T/C (%)
Quick note: give the figure in %, leave out the unit.

Value of viability, T/C reported for the molecule Cc1nc(N2CCC3(CC2)COC(C)C3N)c(CO)nc1Sc1ccnc(N)c1Cl (stereo unspecified) + CCn1c(-c2cccnc2C(C)OC)c2c3cc(ccc31)N1CCOC(CC(NC(=O)C(C(C)C)N(C)C(=O)C3(F)CCN(C(=O)C#CC(C)(C)N(C)C)CC3)C(=O)N3CCCC(N3)C(=O)OCC(C)(C)C2)C1 is 128

###

Property: viability, T/C; scope: individual molecules
# Test system: 186277-243-T-J2-PDC complex spheroids, viability
# assay protocol: Anticancer human tumor 186277-243-T-J2-PDC cell line growth inhibition [RAS];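 note: spheroids exposed to compounds for 7 days before viability read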
# conditions used: second compound 0.1 µM; first compound 0.003 µM; stronger effect = lower value
Quick note: give the figure in %, leave out the unit.

Value of viability, T/C reported for the molecule CC1(C)CCC(Nc2ncc(C(F)(F)F)c(-c3c[nH]c4c(P(C)(C)=O)c(C#N)ccc34)n2)CN1 (centres undefined) + C=CC(=O)N1CCN(c2nc(OCC3CCCN3C)nc3c(F)c(-c4nc(N)cc(C)c4C(F)(F)F)c(Cl)cc23)C(C)C1 is 120

Value of viability, T/C reported for the molecule CC1(C)CCC(Nc2ncc(C(F)(F)F)c(-c3c[nH]c4c(P(C)(C)=O)c(C#N)ccc34)n2)CN1 (centres undefined) + C#Cc1c(F)ccc2cc(O)cc(-c3ncc4c(N5CC6CCC(C5)N6)nc(OCC56CCCN5CC(F)C6)nc4c3F)c12 is 67.4

Value of viability, T/C reported for the molecule CCc1c2c(nc3ccc(O)cc13)-c1cc3c(c(=O)n1C2)COC(=O)[C@]3(O)CC + C=CC(=O)N1CCN(c2nc(OCC3CCCN3C)nc3c(F)c(-c4nc(N)cc(C)c4C(F)(F)F)c(Cl)cc23)C(C)C1 is 98.1

Please examine the following record next.
Value of viability, T/C reported for the molecule CCc1c2c(nc3ccc(O)cc13)-c1cc3c(c(=O)n1C2)COC(=O)[C@]3(O)CC + C#Cc1c(F)ccc2cc(O)cc(-c3ncc4c(N5CC6CCC(C5)N6)nc(OCC56CCCN5CC(F)C6)nc4c3F)c12 is 21.9
